# Species on record: Rattus norvegicus
# test description: Open TG-GATES - Regimen: Single
# Type: toxicity, organism-based, Sprague-Dawley
# Design: regimen Single, gender Male, age 6 weeks
# condition info: in vivo, po, 0 mg/kg, 9 h, tissue Blood, route gavage, dose level Control
APTT listing for selected compounds.

compound: C=C(C)[C@H]1Cc2c(ccc3c2O[C@@H]2COc4cc(OC)c(OC)cc4[C@@H]2C3=O)O1
APTT [s]: 16
--
compound: O=[N+]([O-])c1ccc(O)c([N+](=O)[O-])c1
APTT [s]: 15.9
--
compound: OCCN1CCN(CCCN2c3ccccc3Sc3ccc(C(F)(F)F)cc32)CC1
APTT [s]: 16.6
--
compound: Cc1cccc(C)c1OCC(C)N (stereo not drawn)
APTT [s]: 22.8
--
compound: C[C@H]1O[C@H](O[C@H]2[C@H](O)[C@@H](O)[C@@H](O[C@H]3[C@H](O)[C@@H](O)C(O)O[C@@H]3CO)O[C@@H]2CO)[C@H](O)[C@@H](O)[C@@H]1N[C@H]1C=C(CO)[C@@H](O)[C@H](O)[C@H]1O (stereo partly drawn)
APTT [s]: 18.3
--
compound: CCOC(=O)C(C)(C)Oc1ccc(Cl)cc1 [CLOFIBRATE]
APTT [s]: 18.1
--
compound: C[C@H]1C(=O)O[C@@H]2CCN3CC=C(COC(=O)[C@](C)(O)[C@]1(C)O)[C@H]23
APTT [s]: 19.8
--
compound: Cn1cc[nH]c1=S
APTT [s]: 21.7
